Protocol Summary: Substrate specificities of KAZ mutants (ZZ-fused, crude enzyme), bis-CTZ
Assay type: biochemical
Measurement Setup: 1 μg substrate, integrated for 60 seconds
Reported Metric: Relative Luminescence Activity bis-CTZ Int.
Form field (numeric): enter value without unit.

KAZ-A54I: KAZ with single amino acid substitution A54I, SEQ ID NO: 6 (protein) FTLADFVGDWQQTAGYNQDQVLEQGGLSSLFQALGVSVTPIQKVVLSGENGLKIDIHVIIPYEGLSGFQMGLIEMIFKVVYPVDDHHFKIILHYGTLVIDGVTPNMIDYFGRPYPGIAVFDGKQITVTGTLWNGNKIYDERLINPDGSLLFRVTINGVTGWRLCENILA    3.4
KAZ-V44I-A54I-Y138I: KAZ mutant with three amino acid substitutions V44I, A54I and Y138I, SEQ ID NO: 16 (protein) FTLADFVGDWQQTAGYNQDQVLEQGGLSSLFQALGVSVTPIQKIVLSGENGLKIDIHVIIPYEGLSGFQMGLIEMIFKVVYPVDDHHFKIILHYGTLVIDGVTPNMIDYFGRPYPGIAVFDGKQITVTGTLWNGNKIIDERLINPDGSLLFRVTINGVTGWRLCENILA    11.9
KAZ-Y138I: KAZ with single amino acid substitution Y138I, SEQ ID NO: 8 (protein) FTLADFVGDWQQTAGYNQDQVLEQGGLSSLFQALGVSVTPIQKVVLSGENGLKADIHVIIPYEGLSGFQMGLIEMIFKVVYPVDDHHFKIILHYGTLVIDGVTPNMIDYFGRPYPGIAVFDGKQITVTGTLWNGNKIIDERLINPDGSLLFRVTINGVTGWRLCENILA    1.5

Let me know recorded Relative Luminescence Activity bis-CTZ Int. for KAZ-A54I-Y138I: KAZ mutant with two amino acid substitutions A54I and Y138I, SEQ ID NO: 14 (protein) FTLADFVGDWQQTAGYNQDQVLEQGGLSSLFQALGVSVTPIQKVVLSGENGLKIDIHVIIPYEGLSGFQMGLIEMIFKVVYPVDDHHFKIILHYGTLVIDGVTPNMIDYFGRPYPGIAVFDGKQITVTGTLWNGNKIIDERLINPDGSLLFRVTINGVTGWRLCENILA , thanks.
9.2

Let me know recorded Relative Luminescence Activity bis-CTZ Int. for KAZ: wild 19 kDa catalytic protein of Oplophorus luciferase (19kOLase), amino acid sequence SEQ ID NO: 2 (protein, listed as Oplophorus gracilirostris) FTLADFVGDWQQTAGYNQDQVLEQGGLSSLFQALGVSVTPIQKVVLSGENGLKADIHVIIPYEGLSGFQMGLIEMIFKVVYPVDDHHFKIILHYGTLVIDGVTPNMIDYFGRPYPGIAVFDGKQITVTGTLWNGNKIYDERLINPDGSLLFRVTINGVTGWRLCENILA , thanks.
0.9
